Hey, just so you know, these numbers are from patent US20210061908A1.

- TEST SYSTEM: T1, extracellular domain (ECD) of human IGSF11 (VSIG3), HIS-tagged (human, UniProt Q5DX21 23-241, biotinylated in the ELISA of Example 4 (site not stated))
- T1 construct: also called HIS-IGSF11; IGSF11-HIS; not shown: HIS6 tag
- T1 sequence: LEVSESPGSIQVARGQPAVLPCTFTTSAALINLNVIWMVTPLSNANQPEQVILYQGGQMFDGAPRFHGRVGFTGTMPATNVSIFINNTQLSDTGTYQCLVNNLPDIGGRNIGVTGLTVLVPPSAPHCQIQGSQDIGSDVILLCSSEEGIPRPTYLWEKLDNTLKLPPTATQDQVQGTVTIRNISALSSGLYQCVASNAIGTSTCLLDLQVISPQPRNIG
- EXPERIMENTAL PROTOCOL: ELISA, coated IGSF11-HIS, IgG1 format; EC50 grade (* >1 nM, ** 0.05-1 nM, *** 0.02-0.05 nM, **** <0.02 nM)
Assign EC50 to each entry below.

IN: Field request: EC50 | item: A-024 (human IgG1 format) (antibody, V domains shown) VH: QMQLVQSGAEVKKPGSSVKVSCKASGGTFSSYAISWVRQAPGQGLEWMGWISAYNGNTNYAQKLQGRVTMTTDTSTSTAYMELRSLRSDDTAVYYCASLGSYGYTGAFDIWGQGTMATVSS VL: QSALTQPASVSGSPGQSITISCTGTSSDVGGYNYVSWYQQHPGKAPKLMIYEVSNRPSGVSNRFSGSKSGNTASLTISGLQAEDEADYYCSSYTSSSTLVVFGGGTKLTVL
OUT: 0.02 to 0.05 nM

IN: Similarly, A-001 (human IgG1 format) (antibody, V domains shown, human IgG1 format) VH: EVQLVESGGGLVKPGGSLRLSCAASGFTFSSYSMNWVRQAPGKGLEWVSSISSSSSYIYYADSVKGRFTISRDNAKNSLYLQMNSLRAEDTAVYYCVRSIIVQALGITSVFDIWGQGTMVTVSS VL: AIRLTQSPSSLSASVGDRVTISCRASQIISNHLNWYQQKPGKAPKLLIYAASRLQTGVPSRFSGSGSETDYTLTISSLQPEDFATYYCQQSYSNPRTFGHGTKVEIK ?
OUT: < 0.02 nM

IN: Same thing, different binder: A-013 (human IgG1 format) (antibody, V domains shown, human IgG1 format) VH: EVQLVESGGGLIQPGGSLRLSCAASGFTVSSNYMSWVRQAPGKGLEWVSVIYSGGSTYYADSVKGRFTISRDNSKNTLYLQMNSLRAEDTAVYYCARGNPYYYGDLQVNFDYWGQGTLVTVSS VL: QAVVTQEPSLTVSPGGTVTLTCASSTGAVTSAYYPNWFQQKPGQAPRALIYSTSNKHSWTPARFSGSLLGGKAALTLSGVQPEDEADYYCLLYYGGAWVFGGGTKLTVL
OUT: < 0.02 nM

IN: Also A-016 (human IgG1 format) (antibody, V domains shown, human IgG1 format) VH: QVQLQESGAEVKKPGASVKVSCKASGYTFTGYYMHWVRQAPGQGLEWMGGIIPIFGTANYAQKFQGRVTITADESTSTAYMELSSLRSEDTAVYYCAGAGMELTRSGAYYYYGMDVWGQGTTVTVSS VL: QSALTQPASVSGSPGQSITISCTGTSSDIGGYTFVSWYQQHPGKAPKVMIHDVNNRPSGISNRFSGSKSGNTASLTISGLQAEDEADYYCSSVTSTNTYVFGTGTKVTVL , if possible.
OUT: < 0.02 nM
